The reported numbers originate from PubChem BioAssay (NCI).

Tested on: UO-31 renal
runDescription: NCI tumour cell line growth inhibition, 48 h
Classify by measured TGI: condition met if it is equal to or exceeds 30 µM, condition not met if it is smaller.

1) N=C(N)SCc1cc(Cl)cc(Cl)c1O = condition met
2) CNc1cc2nc3cc(NC)c(C)cc3cc2cc1C = condition not met
3) CCOC(=O)C(=[N+]=[N-])C(=O)CN1C(=O)C2CC(C)=C(C)CC2C1O (stereo unspecified) = condition met
4) CC1(C)CCCC(C)(C2CCC3(C)C2C(O)CC2C4(C)CCC(O)C(C)(C)C4C(O)CC23C)O1 (stereo unspecified) = condition not met
5) c1ccc(-c2nnc(SCc3c[nH]c4ccccc34)n2-c2ccccc2)cc1 = condition met
6) c1ccc(N=c2nc(N3CCOCC3)ss2)cc1 = condition met
7) Cc1cc2oc(-c3ccccc3)c(C)c(=O)c2c2c1OC(C)(C)S2 = condition met
8) CC(Oc1ccc(OCC2CCCCC2)cc1)C(=O)NCCO (stereo unspecified) = condition met
9) Cc1cc(S(=O)(=O)NC2=NC(c3ccccc3)c3cc(Cl)ccc3N2)c(S)cc1Cl (stereo unspecified) = condition met
10) C=C1C(=O)O[C@@H]2[C@H]1CCC(C)=C1C=CC(=O)[C@]12C = condition not met
11) CCOC(=O)C1=C(C)N(Cc2ccccc2)C(=O)C1CC#N (stereo unspecified) = condition met
